Listed here are binders together with their documented binding signal.
Test Target: T1, UNK ZnF1-3 (human, UniProt Q9C0B0 31-174)
T1 sequence: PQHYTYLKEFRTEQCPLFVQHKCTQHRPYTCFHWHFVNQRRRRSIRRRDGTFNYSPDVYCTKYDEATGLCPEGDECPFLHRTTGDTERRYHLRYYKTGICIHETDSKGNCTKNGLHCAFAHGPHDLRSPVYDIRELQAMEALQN
Test Name: nsRBNS (natural sequence RNA bind-n-seq); RBNS binding buffer (assumed for nsRBNS): 25 mM Tris pH 7.5, 150 mM KCl, 3 mM MgCl2, 0.01% Triton X-100, 500 ug/ml BSA, 20 U/ml SUPERase-In, 4 C; UNK is unkempt and MSI1 is Musashi-1; names of the RNAs are library labels; protein concentration not given here; high values mean tight binding
The full ranking holds about 24,000 sequences; the median of “enrichment r” is about 0.99, and the highest 2% start at about 3.7. The entries come from a sample that favours the highest values as a whole.
Give just the numeric value; enrichment R need not be written.

Some solved cases for reference:
173052199_173052319_2237_3pUTR_ENSMUSG00000038400_ENSMUST00000036248|mouse|control|control (ssRNA) RNA: GGGAGUUCUACAGUCCGACGAUCCUGUAUCCACCUGGCACCAAAUUCGGGGACUGCUUUGGCUUUGGGGAUGCACCUUGCCCCCAAACACUGAACCUUCAUAGUUUUUGUGUUUUAAAGAGGAAGAAAAAAAAAAAAACUAAGCAACAGAGGAUUGAGCAUCA	2.34
chr7:888068:888069:+_ENSG00000164828_ENST00000456758|hu_hu|motif|central (ssRNA) RNA: GGGAGUUCUACAGUCCGACGAUCUUGAACUAAAAAUGAUGAAAAAGAUGAUGCAGUGUAUCUGGCCAGCCACAAAAUCCGGUUCACGUAGAAAGACGCACCGCAUUUUUGAUUCCUGUCCCUAGAAUAAACUCUCGACACGGGCAACAGAGGAUUGAGCAUCA	1.34

// below: binding signal requested for another binder
stdin: I am curious: what binding signal value has been reported for chr2:48035047:48035048:-_ENSG00000138081_ENST00000403359|hu_hu|motif|central (ssRNA) RNA: GGGAGUUCUACAGUCCGACGAUCACAAAAUUGCAGCUUAUUUUCUUCACUUCUGUCCCUUCAAGUCUUUACACAGUAAUGCGGAAACACCCAGCUUUGAGAUCCUGAGUCAAUAUAUUGCCACUUUCUUUUUGGUAGCUUGAGCAACAGAGGAUUGAGCAUCA ?
stdout: 0.585
